Test system: Human immunodeficiency virus 1
Experiment: Antiviral activity against X4 tropic HIV-1 clone pNL4-3 infected in H9 cells assessed as reduction in p24 antigen after 4 days by ELISA
Assay type: functional, organism-based
Settings: Human immunodeficiency virus 1, pNL4-3, H9, 96 h
measure: IC50 (nM)

chemical_smiles | result_qualifier | value_observed
CCN(CC)c1ccc(/C=C(\C#N)c2nc3cc(C(=O)OC)ccc3[nH]2)cc1 | = | 1680
CCN(CC)c1ccc(/C=C(\C#N)c2nc3cc(SC)ccc3[nH]2)cc1 | = | 750
CCN(CC)c1cccc(/C=C(\C#N)c2nc3ccccc3[nH]2)c1 | > | 50000
COc1ccc(/C=C(\C#N)c2nc3ccccc3[nH]2)cc1OC | > | 50000
CCN(CC)c1ccc(/C=C(\C#N)c2nc3ccccc3n2C2CC2)cc1 | > | 50000
COc1ccc(/C=C(\C#N)c2nc3ccccc3[nH]2)cc1 | = | 2850
CC(C)c1ccc(/C=C(\C#N)c2nc3ccccc3[nH]2)cc1 | > | 50000
CCN(CC)c1ccc(/C=C(\C#N)c2nc3cc(Cl)c(Cl)cc3[nH]2)cc1 | = | 1250
CCN(CC)c1ccc(/C=C(\C#N)c2nc3ccccc3[nH]2)cc1 | = | 3.45
CN(C)c1ccc(/C=C(\C#N)c2nc3ccccc3[nH]2)cc1 | = | 510
N#C/C(=C\c1ccc(-c2ccccc2)cc1)c1nc2ccccc2[nH]1 | > | 50000
